Taken from PubChem BioAssay (NCI).

# TGI per entry
# Tested on: RPMI-8226 leukemia
# Experiment description: NCI tumour cell line growth inhibition, 48 h

Some compounds with recorded TGI:
{"columns": ["Compound", "Measurement target", "Meas value"],
 "data": [
  ["CC(C)(C)OC(=O)NC(Cc1ccc(OCc2ccccc2)cn1)C(=O)N1CCCC1 (stereo not drawn)", "RPMI-8226 leukemia", "> 100 µM"],
  ["C/C(=C1\\SC(=NCc2cccs2)NC1=O)c1ccc2ncccc2c1", "RPMI-8226 leukemia", "> 25 µM"]
]}

Would you kindly look at the next entry?
Recorded result, CC(C)C(N=c1c2ccccc2n(O)c2ccccc12)C(=O)O (stereo not drawn) , TGI: > 100 µM
